target: Leucine aminopeptidase (Plasmodium falciparum (isolate 3D7)) (UniProt Q8IL11); assay: P. falciparum M17LAP inhibitors, primary screen, biochemical, fluorogenic H-Leu-NHMec substrate, 1536-well (AID 1619); settings: recombinant M17LAP, H-Leu-NHMec fluorogenic kinetic assay; at 30 µM; active compounds read high;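 note: plate controls were full reaction with DMSO carrier for no effect and no enzyme background for full effect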
Sequence (Q8IL11 whole entry, looked up): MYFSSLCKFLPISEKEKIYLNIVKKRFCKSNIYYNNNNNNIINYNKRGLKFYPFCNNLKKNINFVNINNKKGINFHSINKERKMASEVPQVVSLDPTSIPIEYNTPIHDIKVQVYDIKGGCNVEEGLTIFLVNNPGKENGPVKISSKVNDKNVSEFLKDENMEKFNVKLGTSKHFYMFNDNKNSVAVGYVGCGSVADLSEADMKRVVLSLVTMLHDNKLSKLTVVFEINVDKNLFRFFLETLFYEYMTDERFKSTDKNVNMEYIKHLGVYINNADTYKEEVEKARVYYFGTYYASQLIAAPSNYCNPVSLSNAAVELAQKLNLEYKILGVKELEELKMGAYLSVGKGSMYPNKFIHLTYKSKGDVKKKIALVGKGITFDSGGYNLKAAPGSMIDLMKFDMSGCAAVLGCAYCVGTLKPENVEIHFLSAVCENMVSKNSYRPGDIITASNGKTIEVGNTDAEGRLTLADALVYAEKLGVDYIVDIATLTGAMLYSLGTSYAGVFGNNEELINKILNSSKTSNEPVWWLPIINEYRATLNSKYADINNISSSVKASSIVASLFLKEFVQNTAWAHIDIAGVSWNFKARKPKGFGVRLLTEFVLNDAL
Among all 220,000 compounds or so, about 830 (0.38%) were called active. These entries were drawn from the full list. Measured potencies and affinities stand elsewhere.
Give measured inhibition for each item. Keep answers brief.
Answers are plain numbers, in %.

Example entries and their recorded answers appear below.
O=C(Cn1cc(C(=S)N2CCOCC2)c2ccccc21)N1CCOCC1    1.74
CC(Sc1ccc2c(c1)OCCO2)C(=O)Nc1ccc(N2CCOCC2)cc1 (configuration not stated)    -0.69
CCCCSc1nc(O)c(C2OC(=O)c3c2ccc(OC)c3OC)c(=O)n1C (configuration not stated)    44.3
O=C(O)CCn1c(C2CCCCC2)nc2ccccc21    10.6
Cc1noc(NS(=O)(=O)c2ccc(NC(=O)CSc3n[nH]c(-c4ccccc4)n3)cc2)c1C    -60.9

Each compound below has a recorded value; state its inhibition.
1. O=C(NCc1ccccn1)C(=O)N/N=C/c1ccc2c(c1)OCO2
2. Cc1cc(C)c(C(=O)Nc2ccc(S(=O)(=O)Nc3onc(C)c3C)cc2)c(C)c1
3. CC(Sc1ccc2c(c1)OCCO2)C(=O)Nc1ccc2c(c1)OCO2 (configuration not stated)
4. COC(=O)c1c(NC(=O)CSc2nnc(C)c(=O)[nH]2)sc(C)c1C
5. COC1=Cc2c(ccc3ccc(=O)oc23)OC1(C)C
6. Cc1noc(NS(=O)(=O)c2ccc(N/C=C/C(=O)c3ccc(F)cc3)cc2)c1C
7. CCCN(c1ccc(C(=O)OC)cc1)S(=O)(=O)c1ccccc1

**Result**
[9.75, -10.6, 31.4, 21.5, -5.99, 20.6, -1.32]

# per-item lookup of inhibition; items listed below
1. CCCNC(=O)NC(=O)CSc1ccc2c(c1)OCCO2
2. CCN(c1ccc(NC(=O)COC(=O)c2cccs2)cc1)C(C)C
3. Cc1ccc(C2C(C#N)=C(N)Oc3nc(-c4ccccc4)[nH]c32)o1 (configuration not stated)
4. Cc1ccc(Nc2ccc(-n3ccnc3)nn2)cc1C

**Result**
[-3.31, 38.8, 94, 1.15]

List reported inhibition for each of these compounds:
1. N#CC1=C(N)Oc2cc3ccccc3cc2C1c1cccnc1 (configuration not stated)
2. CCOC(=O)c1c(NC(=O)CSc2nnc(C)c(=O)[nH]2)sc(C)c1C
3. COc1cccc(NC(=O)Cn2c(=O)n(CCC(=O)NCc3ccco3)c(=O)c3ccccc32)c1
4. Cc1noc(NS(=O)(=O)c2ccc(N/C=C/C(=O)c3ccc4c(c3)OCO4)cc2)c1C
5. CC(C)Oc1cccc(C(=O)C2CCCN(Cc3cccn3-c3cccnc3)C2)c1 (configuration not stated)
6. Cc1nnc(SCC(=O)Nc2sc3c(c2C(N)=O)CCCC3)[nH]c1=O

**Result**
1. 0.21
2. 11.9
3. -7.32
4. 36.4
5. 4.62
6. 49.5

---

molecular target: Leucine aminopeptidase (Plasmodium falciparum (isolate 3D7)) (UniProt Q8IL11); assay: P. falciparum M17LAP inhibitors, primary screen, biochemical, fluorogenic H-Leu-NHMec substrate, 1536-well (AID 1619); conditions: recombinant M17LAP, H-Leu-NHMec fluorogenic kinetic assay; at 30 µM; active compounds read high;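 note: plate controls were full reaction with DMSO carrier for no effect and no enzyme background for full effect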
The campaign covered roughly 220,000 compounds. About 830 (0.38%) were called active. A selection follows. Results with a measured potency or affinity are listed apart.
For each record, write down the corresponding inhibition.
Answers are plain numbers, in %.

COc1cc(/C=N/NC(=O)c2sc(N)c(C#N)c2C)ccc1O    3.64
Nc1n[nH]c(C2CC2)c1N=Nc1ccc(Cl)cc1    18.4
Cc1cc(/C=N/Nc2ccc([N+](=O)[O-])cn2)c(C)n1-c1ccccc1    9.51
Cc1ccccc1OCCCCn1c(CO)nc2ccccc21    5.4
Cc1csc(NC(=O)[C@@H]2CCCN2C(=O)c2cccs2)n1    -1.96
CC(C)OC(=O)C1CC=CCC1C(=O)Nc1ccc(Cl)cc1 (stereo not given)    2.15
CC1=C(C)CC(C(=O)Nc2ccc(C(N)=O)cc2)C(C(=O)O)C1 (stereo not given)    20.2
CCOc1ccc(NC(=O)C2C3CC/C=C\CCC32)cc1 (stereo not given)    4.68
COC(=O)c1ccccc1N=Nc1c(N)n[nH]c1N    12.4
COc1ccccc1N1CCN(S(=O)(=O)Cc2ccccc2Cl)CC1    3.75

# return inhibition for each item in the list
1. Cc1ccc(-c2c(C#N)c(N)nc3c2CCCC3)s1
2. CC(C)Cc1c(O)nc(SCC(=O)Nc2ccc3c(c2)CCC3)[nH]c1=O
3. Cn1cnnc1SCC(=O)Nc1ccc2c(c1)CCC2
4. Nc1n[nH]c(N)c1N=Nc1ccc(Cl)cc1Cl
5. O=C(CSc1nncs1)Nc1ccc2c(c1)OCCO2
6. Nc1nn(-c2ccccc2)c(N)c1N=Nc1ccccc1
7. COc1ccc(N=Nc2c(N)n[nH]c2N)cc1
8. CCc1onc(C)c1C(=O)Nc1cc(C)ccc1OC

**Result**
9.55
54.1
42.8
47.6
23.5
-19.2
9.88
7.34

---

target: Leucine aminopeptidase (Plasmodium falciparum (isolate 3D7)) (UniProt Q8IL11); experiment: P. falciparum M17LAP inhibitors, primary screen, biochemical, fluorogenic H-Leu-NHMec substrate, 1536-well (AID 1619); details: recombinant M17LAP, H-Leu-NHMec fluorogenic kinetic assay; at 30 µM; active compounds read high;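 note: plate controls were full reaction with DMSO carrier for no effect and no enzyme background for full effect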
About 830 (0.38%) of roughly 220,000 compounds were called active. The list is a sample of the results. Potency and affinity values are given separately.
measurement.name: inhibition (%)
One number for each entry, in %.

O=c1c(Cc2ccc(F)cc2)c(O)ccn1Cc1ccc(F)cc1    -0.83

Kindly give each listed record's inhibition.
1. C/C(CC(=O)N(C(C)C)C(C)C)=N\NC(=O)COc1ccc(Cl)cc1Cl
2. O=C(O)c1ccc(-n2cccc2/C=C2/NC(=O)N(c3ccccc3)C2=O)cc1
3. CCC(=O)Nc1ccc2c(c1)C(=O)c1ccccc1C2=O
4. CC1CCCN(c2nc(NCc3ccco3)nc(N)c2[N+](=O)[O-])C1 (stereo not drawn)
5. CCOC(=O)C1=C(O)/C(=C/c2ccc(OCC(=O)O)c(OC)c2)SC1=Nc1ccc(OC)cc1
6. CCOC(=O)C1=C(O)/C(=C/c2ccc(OCC(=O)O)c(OC)c2)SC1=Nc1ccc(OCC)cc1
7. CCSc1nnc(NC(=O)C2CCCCC2C(=O)O)s1 (stereo not drawn)
8. O=C(Nc1n[nH]c(C2CCCCC2)n1)C1CCCCC1

**Result**
1: 7.13; 2: 11.3; 3: -6.31; 4: -3.16; 5: 41.7; 6: 38.5; 7: 48.8; 8: -5.77

---

Please respond with reported inhibition for every item in the list.
biological target: Leucine aminopeptidase (Plasmodium falciparum (isolate 3D7)) (UniProt Q8IL11); assay: P. falciparum M17LAP inhibitors, primary screen, biochemical, fluorogenic H-Leu-NHMec substrate, 1536-well (AID 1619); details: recombinant M17LAP, H-Leu-NHMec fluorogenic kinetic assay; at 30 µM; active compounds read high;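 note: plate controls were full reaction with DMSO carrier for no effect and no enzyme background for full effect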
In all, about 220,000 compounds went through this assay and about 830 (0.38%) were called active. Not all results are given here. Measured potencies and affinities stand elsewhere.

Known inhibition results, listed for orientation:
Cc1ccc(C(=O)NNC(=S)NC(=O)COc2ccccc2)cc1    16.5% (inactive)
CN1CC(=O)N(CCOc2ccccc2)C1=O    5.27% (inactive)
Cc1nn(C)cc1CN(C)C(=O)c1nn2c(c1Cl)NC(c1cccs1)CC2C(F)(F)F (configuration not stated)    11.7% (inactive)
Brc1ccc(C2=Nn3c(nnc3-c3n[nH]c4c3CCC4)SC2)cc1    6.03% (inactive)
COc1cc2c(cc1OC)C(C(=O)N1CCCCC1)C(c1ccccc1F)N(C)C2=O (configuration not stated)    2.89% (inactive)

Please go through the list and note inhibition for each compound.
1. Cn1c(=O)c2c(nc(N3CCCCC3)n2CCNC2=NCCC2)n(C)c1=O
2. O=[N+]([O-])c1cccc(-c2nnn(C34CC5CC(CC(C5)C3)C4)n2)c1
3. CCOC(=O)c1c(-c2cccs2)csc1NC(C)=O
4. O=C(Cc1cccs1)NNC(=S)NC(=O)c1ccc(F)c(F)c1

**Result**
["11.7% (inactive)", "-10.4% (inactive)", "-14.7% (inactive)", "7.14% (inactive)"]

Hi! Can you tell me inhibition for each of these compounds?
1. O=C(CCCNS(=O)(=O)c1cccs1)N1CCc2ccccc2C1
2. CC1CCCCN1CC(=O)Nc1ccc(N2CCCCCC2)cc1 (configuration not stated)

**Result**
["-15.3% (inactive)", "37.6% (inactive)"]

Each of the following entries comes with a recorded value; kindly state inhibition for each.
1. COc1ccc(C(=O)NC(=S)NNC(=O)COc2ccccc2)cc1
2. O=C(CCc1ccccc1)NNC(=S)NC(=O)c1ccc(Cl)cc1
3. O=C(CCN1C(=O)C2C3C=CC(C3)C2C1=O)Nc1ccc2c(c1)OCO2 (configuration not stated)
4. CC1CCCCC12NC(=O)N(CC(=O)Nc1ccc(N3CCOCC3)cc1)C2=O (configuration not stated)
5. COc1ccccc1NC(=O)NCc1nc(-c2ccc(C(F)(F)F)cc2)no1
6. CCn1c(-c2cc(-c3ccc(C)cc3)nc3ccccc23)n[nH]c1=S
7. O=C(CN1C(=O)NC2(CCCCC2)C1=O)Nc1ccc(N2CCOCC2)cc1
8. Cn1cnc(S(=O)(=O)Nc2ccc(C(F)(F)F)cc2)c1

**Result**
["1.34% (inactive)", "92.7% (inactive)", "-8.11% (inactive)", "22% (inactive)", "0.03% (inactive)", "-3.9% (inactive)", "29.2% (inactive)", "8.69% (inactive)"]

Batch lookup, inhibition per entry.
1. O=C(CN1C(=O)CCC1=O)Nc1ccc(Cc2ccc(NC(=O)CN3C(=O)CCC3=O)cc2)cc1
2. CC(C)(C)c1cc(CCC(=O)NNC(=O)c2ccco2)cc(C(C)(C)C)c1O
3. COc1ccc(C(=O)NC(=S)NNC(=O)Cc2cccs2)cc1

**Result**
1: 1.75% (inactive); 2: -5.01% (inactive); 3: 41.2% (inactive)
